Recorded growth inhibition values for a group of compounds are listed next.
assay: NCI Yeast Anticancer Drug Screen. Data for the cln2 rad14 strain (AID 165);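 further: 0% = growth equal to vehicle treated cultures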; conditions: S. cerevisiae cln2 rad14 strain, at 50.0 µM (retest, dose inferred, filed as 5.0), stronger effect = higher value
This is part of a sample that, as a whole, favours compounds with a hit. Of some 79,000 tested, about 15% had one in any assay.
Please state the figure in %; there is no need to write the unit.

Worked cases, answers included:
Oc1c(N2CCOCC2)cc(-c2cc(N3CCOCC3)c(O)c3ccccc23)c2ccccc12: 21
Clc1ccc(SCCN2CCN(CCSc3ccc(Cl)cc3)CC2)cc1: 98
CC(=O)OC1=C(CC(C)C)C(=O)c2ccccc2C1=O: 55
O=C(CCl)Oc1ccc(Sc2ccc(OC(=O)CCl)cc2)cc1: 94
O=C1OC(C2OC(=O)C(=O)C2C(=O)c2ccc(Cl)c(Cl)c2)C(C(=O)c2ccc(Cl)c(Cl)c2)C1=O (centres undefined): 84

Name the recorded growth inhibition for `Nc1cc(S(=O)(=O)O)cc2cc(S(=O)(=O)O)c(N=Nc3ccccc3)c(O)c12` .
3

Name the recorded growth inhibition for `COc1ccc(/C(=N\Nc2ccc(Br)cc2)c2ccccc2/C(=N/Nc2ccc(Br)cc2)c2ccccc2OC)cc1` .
11

Name the recorded growth inhibition for `N#Cc1cccc2c1Sc1ccccc1N2` .
-6

Name the recorded growth inhibition for `CSc1nc(SC)c2cn(Cc3ccccc3)nc2n1` .
85

Name the recorded growth inhibition for `Oc1c(Cl)c(Cl)c2ncccc2c1Cl` .
5

Name the recorded growth inhibition for CN(C)c1ccc(C(=O)C2CCCC(C)(C)C2)cc1 (centres undefined) .
27

Name the recorded growth inhibition for `COC(=O)[C@@H]1c2cc3c(c(O)c2[C@@H](OC)C[C@@]1(C)O)C(=O)c1c(O)cc2c(c1C3=O)OC1O[C@@]2(C)[C@H](O)[C@@H](N(C)C)[C@@H]1O` .
97

###

Assay: NCI Yeast Anticancer Drug Screen. Data for the mec2-1 strain (AID 157)
Conditions: S. cerevisiae mec2-1 strain, at 50.0 µM, stronger effect = higher value
Protocol: Growth inhibition of yeast strains with defined genetic alterations is measured as a screen for potential anti-cancer activity. Selected strains with alterations in DNA damage repair or cell cycle control were exposed to compounds and growth inhibition was measured relative to vehicle treated controls. The strain used in this assay is mec2-1
The panel holds about 79,000 compounds, 15% with a hit somewhere; the sample as a whole holds those more often.
Parameter: growth inhibition (%)
Please state the figure in %; there is no need to write the unit.

Worked cases, answers included:
c1cc2cc(Cc3ccc4[nH]ccc4c3)ccc2[nH]1: 11.4
C/C(=N\NC(=S)NC(C)(C)C)c1ccccn1: 85
C=C(C#N)C(=O)OCC(CC)CC.C=C(C#N)C(=O)OCC(CC)CC.CS(C)=O.CS(C)=O.Nc1c(N=Nc2ccc(-c3ccc(N=Nc4cc(S(=O)(=O)[O-])c5ccccc5c4N)cc3)cc2)cc(S(=O)(=O)[O-])c2ccccc12.[Pt+2]: 96.9
CC12OC1C(=O)c1ccccc1C2=O (stereo unspecified): 92.1
Nc1ccc(S(=O)(=O)C23CC4CC(CC(C4)C2)C3)cc1: 98.8
CCOC(=O)C(=Cc1ccccc1Br)C(=O)OCC: 92.5
CC(=O)O[C@H]1CC[C@]2(C)C34OC3C[C@]3(C)[C@@H](C(C)=O)CC[C@H]3[C@]43C=C[C@@]2(C1)C1C(=O)OC(=O)C13 (stereo partly specified): 89.9
N#Cc1ccc(OC(=O)Nc2c(Cl)cccc2Cl)cc1: 82.2

Name the recorded growth inhibition for `Oc1ccc2ccccc2c1/C=N\Sc1ccccc1` .
99.3

Name the recorded growth inhibition for `CC(=O)Nc1n[n+]([O-])c2cc(C)ccc2[n+]1[O-]` .
99.7

Name the recorded growth inhibition for `CCCCCCCCC(N)CCCCCCCC` .
99

Name the recorded growth inhibition for `O=C1C(=O)c2ccccc2C=C1C1CCCCC1` .
78.2

Name the recorded growth inhibition for `O=C1C=CC(=NN=C(c2ccccc2)c2ccccc2)C=C1` .
54.5

Name the recorded growth inhibition for O=C1OS(=O)(=O)c2cc3c(cc21)C1C(C2C3C3(Cl)C(Cl)=C(Cl)C2(Cl)C3(Cl)Cl)C2(Cl)C(Cl)=C(Cl)C1(Cl)C2(Cl)Cl (stereo unspecified) .
71.8

Name the recorded growth inhibition for `Cc1cc(Cl)cc2c1OCN(C)C2` .
99.2

Name the recorded growth inhibition for C=C1C[C@H](O)[C@H]2C(C[Se]c3ccccc3)C(=O)O[C@@H]2[C@H]2[C@H](C)C(O)C[C@@H]12 (stereo partly specified) .
20.6

Name the recorded growth inhibition for CCCC#CC(O)(C(=O)OC1CCN(C)CC1)C1CCCCC1 (stereo unspecified) .
45.1

Name the recorded growth inhibition for `Cn1cc(NC(=O)c2cc(NC(=O)CCCCCCC(=O)Nc3cc(C(=O)Nc4cc(C(=O)NCCC(=N)N)n(C)c4)n(C)c3)cn2C)cc1C(=O)NCCC(=N)N` .
93.8

Name the recorded growth inhibition for `BrCc1ccccc1C[P+](c1ccccc1)(c1ccccc1)c1ccccc1` .
90.7

Name the recorded growth inhibition for `C=CC(=O)NC(C)C` .
-3.7

Name the recorded growth inhibition for CN(Cc1ccccc1)CC(O)c1ccc(/C=C/c2ccc(Cl)cc2)cc1 (stereo unspecified) .
65.5
